Hello, the source for this data is PubChem BioAssay (NCI), in case you need it.

growth values by entry
tested on: OVCAR-4 ovarian; assay: NCI-60 one-dose screen, 48 h (100 = growth as untreated, 0 = no growth, -100 = all killed); settings: 10 µM unless noted
The panel holds about 83,000 compounds, 20% with a hit somewhere; the sample as a whole holds those more often.
test-readout: growth (%)

INSERT INTO measurements (compound, test_readout, experimental_value) VALUES
  ('CS(=O)(=O)Nc1cc(-c2ccc3ncc(C#N)c(Nc4cccc(Cl)c4F)c3c2)cnc1Cl', 'growth', 19.1),
  ('COc1cccc2c1CN(C(=O)c1ccc(O)c(C(=O)N3Cc4ccc(OCCC[P+](c5ccccc5)(c5ccccc5)c5ccccc5)cc4C3)c1)C2', 'growth', 84),
  ('C#C[C@]1(O)CC[C@H]2[C@@H]3CC=C4c5sc(-c6ccc7c(c6)OCO7)nc5CC[C@]4(C)[C@H]3CC[C@@]21C', 'growth', 34.9),
  ('O=C(NNc1nc2cc(F)ccc2n2cccc12)c1ccncn1', 'growth', -6.78),
  ('C=C(C=O)[C@@H]1CC[C@]2(CO)CC[C@]3(C)[C@H](CC[C@@H]4[C@@]5(C)CCCNC(C)(C)[C@@H]5CC[C@]43C)[C@@H]12', 'growth', 87),
  ('O=C(CSc1nnc(-c2ccc3nc(-c4ccccc4)[nH]c3c2)o1)Nc1ccc(C(=O)/C=C/c2ccccc2)cc1', 'growth', 100),
  ('Oc1[nH]c2ccccc2c1Nn1c(N=N/C=c2/ccc3c(c2)C=NN=3)n[nH]c1=S', 'growth', 84.6),
  ('CCCCCc1ccc(S(=O)(=O)Nc2cc(-c3csc(NC(=O)CN4CCN(C)CC4)n3)ccc2OC)cc1', 'growth', 41.8),
  ('Cn1cc(-c2nnc(N)nc2-c2c[nH]c3ccc(F)cc23)c2cc(F)ccc21', 'growth', 98.4),
  ('CC/C(=C/c1c(O)cccc1OC)c1ccc2c(OC)cccc2[o+]1', 'growth', 99.7),
  ('CCOC(=O)C(=O)CC(=O)N1C(=S)NC(=O)C1CC(C)C (configuration not stated)', 'growth', 102),
  ('COc1cc(-c2nnc(SCc3ccc(O)c4ncccc34)n2-c2ccccc2)cc(OC)c1OC', 'growth', 6.79),
  ('O=C(Nc1cccc(Cl)c1)Nc1nc2ccc([N+](=O)[O-])cc2o1', 'growth', -3.53),
  ('COC[C@]12CCC(C)(C)C[C@H]1C1=CC[C@@H]3[C@@]4(C)CCCNC(C)(C)[C@@H]4CC[C@@]3(C)[C@]1(C)CC2', 'growth', -18.9),
  ('COc1ccc(C2CC(c3ccc(Nc4nc(NCCO)nc(N5CCOCC5)n4)cc3)=Nc3c(N)nc(N)nc3N2)cc1 (configuration not stated)', 'growth', 104),
  ('CCOC(=O)c1c(Nc2ccccc2)nn2c(-c3cccs3)ccnc12', 'growth', 91.7),
  ('C=C1CC[C@@H]2[C@]3(C)COC(c4ccccc4)O[C@@H]3CC[C@@]2(C)[C@@H]1C/C=C1/C(=O)OC[C@H]1O (some centres not stated)', 'growth', 83.4);
